This collection of values is drawn from patent US10751417B2.

test: Release study 8-4b: degradation of model conjugates M20-M27 in aqueous DMF:PBS at 37 °C, HPLC-UV/MS; type: physicochemical; settings: 1 mM in 2:1 DMF:PBS, first order fit, rounded to nearest whole day, read-out: Calculated stability t1/2, parent (converted)
# note: exactly 50 days is not below, so it is false (0); use true (1) for half-life at 1 mM strictly under it

{"molecule": "CCOCC(C)O[Si](CC)(CC)OCC1CN(C(=O)CCNC(=O)OCc2ccccc2)CCN1CC(=O)NCc1ccc(OC)cc1 (centres unmarked)", "class": "true (1)"}
{"molecule": "CCC(C)O[Si](CC)(CC)OCC1CN(C(=O)CCNC(=O)OCc2ccccc2)CCN1CC(=O)NCc1ccc(OC)cc1 (centres unmarked)", "class": "false (0)"}
{"molecule": "CC[Si](CC)(OCCOCCOC)OCC1CN(C(=O)CCNC(=O)OCc2ccccc2)CCN1CC(=O)NCc1ccc(OC)cc1 (centres unmarked)", "class": "true (1)"}
{"molecule": "CC[Si](CC)(OCC1CN(C(=O)CCNC(=O)OCc2ccccc2)CCN1CC(=O)NCc1ccc(OC)cc1)OC1CCOCC1 (centres unmarked)", "class": "false (0)"}

----------
assay: Release study 8-4a: model traceless linker-drug conjugates M1-M19 held in 1×PBS at 37 °C, HPLC-UV/MS; format: physicochemical; conditions: 1 mM in 1×PBS, first order fit, rounded to nearest whole day, read-out: Calculated stability t1/2, parent (converted)
The following molecules are shown together with reported half-life at 1 mM values.
observed_property: half-life at 1 mM (h)

{"molecule": "CC(=O)OCC1CN(C(C)=O)CCN1CC(=O)Nc1ccccn1 (centres unmarked) [M17]", "test_value": 1200}
{"molecule": "COC(=O)C1CN(C(C)=O)CCN1CC(=O)NCc1ccc(OC)cc1 (centres unmarked) [M7]", "test_value": 72}
{"molecule": "COCC(=O)OCC1CN(C(=O)CCNC(=O)OCc2ccccc2)CCN1CC(=O)NCc1ccc(OC)cc1 (centres unmarked) [M3]", "test_value": 48}
{"molecule": "COc1ccc(CNC(=O)CN2CCN(C(C)=O)CC2COC(C)=O)cc1 (centres unmarked) [M6]", "test_value": 624}
{"molecule": "COC(=O)OCC1CN(C(C)=O)CCN1CC(=O)NCc1ccc(OC)cc1 (centres unmarked) [M8]", "test_value": 840}
{"molecule": "CC(=O)OCC1CN(C)CCN1CC(=O)Nc1ccccn1 (centres unmarked) [M18]", "test_value": 192}
{"molecule": "COc1ccc(CNC(=O)CN2CCN(C(=O)CCNC(=O)OCc3ccccc3)CC2COC(C)=O)cc1 (centres unmarked) [M2]", "test_value": 552}
{"molecule": "CCC(=O)OCC1CN(C(=O)CCNC(=O)OCc2ccccc2)CCN1CC(=O)NCc1ccc(OC)cc1 (centres unmarked) [M1]", "test_value": 888}
{"molecule": "COCC(=O)OCC1CN(C(=O)CCNC(=O)OCc2ccccc2)CCN1CC(=O)Nc1ccc(OC)cc1 (centres unmarked) [M5]", "test_value": 72}
{"molecule": "CCC1CCN(CC(=O)Nc2ccccn2)C(COC(C)=O)C1 (centres unmarked) [M19]", "test_value": 144}
{"molecule": "COCC(=O)OCC1CN(C(=O)CCNC(=O)OCc2ccccc2)CCN1CC(=O)N(C)Cc1ccc(OC)cc1 (centres unmarked) [M4]", "test_value": 48}
